measured_on: T1, recombinant biotinylated rat PAR2 extracellular residues 1-75, N-terminal AviTag, C-terminal Flag and poly … (rat, UniProt Q63645 26-75, not fully specified; biotin on the AviTag (enzymatic biotinylation))
T1 construct: range 1-75; not shown: N-terminal AviTag (Avidity LLC); C-terminal Flag and poly Histidine tags
T1 chain (looked up): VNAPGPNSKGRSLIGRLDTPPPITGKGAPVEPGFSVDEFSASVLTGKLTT
assay_name: Biacore SPR 25 C, pH 7.4
quantity_measured: Kd (nM)
Numbers only here, please. The scale is nM.

Known results for binders:
[
  {
    "binder": "PaB670076 Fab (Fab, V domains shown, Fab; also called ZZ1NHH-F09) VH: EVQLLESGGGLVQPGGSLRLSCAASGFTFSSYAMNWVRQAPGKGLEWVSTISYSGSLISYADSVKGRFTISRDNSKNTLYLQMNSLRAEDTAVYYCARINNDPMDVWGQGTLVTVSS VL: SIELTQPPSVSVSPGQTASITCSGDNLGKKYVQWYQQKPGQSPVLVIYDDSNRPSGIPERFSGSNSGNTATLTISGTQAMDEADYYCHTWDHHHTTGEHNVFGGGTKLTVL",
    "unit_abbrev": "nM",
    "Kd": 1.69
  },
  {
    "binder": "Par0067 Fab (Fab, V domains shown, Fab; also called ZZ15D2-D02) VH: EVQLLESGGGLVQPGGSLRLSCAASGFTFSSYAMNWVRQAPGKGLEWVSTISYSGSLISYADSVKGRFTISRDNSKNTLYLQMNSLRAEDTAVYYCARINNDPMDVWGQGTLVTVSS VL: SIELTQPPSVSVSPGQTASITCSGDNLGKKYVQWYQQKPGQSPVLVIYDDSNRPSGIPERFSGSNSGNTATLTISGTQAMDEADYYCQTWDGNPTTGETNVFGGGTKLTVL",
    "unit_abbrev": "nM",
    "Kd": 0.0376
  },
  {
    "binder": "PaB670128 Fab (Fab, V domains shown, Fab; also called ZZ1RUE-A01) VH: EVQLLESGGGLVQPGGSLRLSCAASGFTFSSYAMNWVRQAPGKGLEWVSTISYHGHHISYADSHHHRFTISRDNSKNTLYLQMNSLRAEDTAVYYCARIHHDPMDVWGQGTLVTVSS VL: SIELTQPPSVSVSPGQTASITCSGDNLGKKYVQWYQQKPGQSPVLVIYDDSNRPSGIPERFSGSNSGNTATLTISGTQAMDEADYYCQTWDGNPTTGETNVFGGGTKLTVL",
    "unit_abbrev": "nM",
    "Kd": 3.02
  },
  {
    "binder": "PaB670048 Fab (Fab, V domains shown, Fab; also called ZZ1KX4-E11) VH: EVQLLESGGGLVQPGGSLRLSCAASGFTFSSYAMNWVRQAPGKGLEWVSTISYSGSLISYADSVKGRFTISRDNSKNTLYLQMNSLRAEDTAVYYCARIHHDPMDHWGQGTLVTVSS VL: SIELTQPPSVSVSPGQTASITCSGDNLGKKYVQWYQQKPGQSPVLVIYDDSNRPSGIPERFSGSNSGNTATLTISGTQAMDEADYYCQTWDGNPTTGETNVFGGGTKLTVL",
    "unit_abbrev": "nM",
    "Kd": 0.586
  },
  {
    "binder": "PaB670103 Fab (Fab, V domains shown, Fab; also called ZZ1RCX-C09) VH: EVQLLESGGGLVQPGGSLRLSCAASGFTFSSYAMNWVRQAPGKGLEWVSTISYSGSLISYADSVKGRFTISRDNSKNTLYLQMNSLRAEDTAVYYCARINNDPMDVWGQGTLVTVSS VL: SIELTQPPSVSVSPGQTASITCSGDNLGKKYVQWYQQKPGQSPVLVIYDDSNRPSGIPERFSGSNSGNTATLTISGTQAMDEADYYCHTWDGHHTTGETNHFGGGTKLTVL",
    "unit_abbrev": "nM",
    "Kd": 0.184
  }
]

Please turn your attention to the following entry.
Report Kd for PaB670136 Fab (Fab, V domains shown, Fab; also called ZZ1RUF-A01) VH: EVQLLESGGGLVQPGGSLRLSCAASGFTFSSYAMNWVRQAPGKGLEWVSTISYHGHHISYADSHHHRFTISRDNSKNTLYLQMNSLRAEDTAVYYCARIHHDPMDHWGQGTLVTVSS VL: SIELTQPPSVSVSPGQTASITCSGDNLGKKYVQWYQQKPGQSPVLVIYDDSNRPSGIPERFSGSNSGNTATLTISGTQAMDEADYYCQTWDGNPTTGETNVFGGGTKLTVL please.
4.15
